Each recorded value in this set is attributed to PubChem BioAssay (NCATS).

# Test system: C33A
# Protocol Details: Primary qHTS to identify gynecologic anti-cancer compounds using libraries of approved drugs and bioactive compounds (AID 1345084); further: on the % scale 0 is the no-effect control and ±100 the full control effect; nearly all actives have a fitted effect of over 55% in size
# Experimental Parameters: Gynecologic cancer cell panel viability, ATPlite luminescence, 48 h; series mostly up to 57.5 µM
Inconclusive results are not listed. The source made the active and inactive calls. The call rests on the fitted dose curve; in most records, active means well fitted cell-killing curve with a large enough effect; inconclusive means small, poorly fitted or top-dose-only effect, or effect the other way; inactive means flat fitted curve, though single readings scatter.
Quantity Measured: activity change, negative = cytotoxicity

Solved entries:
Compound: O=C(/C=C/c1ccc(O)cc1)OCC1=CC2OC(=O)C3=CO[C@@H](O[C@@H]4O[C@H](CO)[C@@H](O)[C@H](O)[C@H]4O)[C@H]1[C@@H]32 (stereo partly drawn)
activity change, negative = cytotoxicity: inactive
--
Compound: COC(=O)[C@@]1(C)CC[C@]2(C(=O)O[C@@H]3O[C@H](CO)[C@@H](O)[C@H](O)[C@H]3O)CC[C@]3(C)C(=CCC4[C@@]5(C)CC[C@H](O[C@@H]6O[C@H](C(=O)O)[C@@H](O)[C@H](O)[C@H]6O)C(C)(C)C5CC[C@]43C)[C@@H]2C1 (stereo partly drawn)
activity change, negative = cytotoxicity: -14.8% [at 11.6 µM] (inactive)
--
Compound: CC(C)C(=O)c1cn(CC(=O)COc2ccc(Oc3ccccc3)cc2)c2ccc(C(=O)O)cc12
activity change, negative = cytotoxicity: inactive
--
Compound: CCCCS(=O)(=O)Nc1ncnc(OCCOc2ncc(Br)cn2)c1-c1ccc(Br)cc1
activity change, negative = cytotoxicity: inactive
--
Compound: C[C@@H]1C(=O)O[C@H]2CC34[C@H]5C[C@@H](C(C)(C)C)C36[C@@H](OC(=O)[C@@H]6O)OC4(C(=O)O5)[C@]21O (stereo partly drawn)
activity change, negative = cytotoxicity: inactive
--
Compound: CC[C@H](C)/C=C(C)/C=C/C(=O)Cc1cc(O)c(C)c(O)c1C=O
activity change, negative = cytotoxicity: inactive
--
Compound: C[C@@H]1O[C@@H](O[C@@H]2[C@@H](O)[C@H](O[C@@H]3[C@@H](O)[C@@H](O)[C@H](O[C@H]4[C@H](OC(=O)[C@]56CCC(C)(C)C[C@H]5C5=CCC7[C@@]8(C)C[C@H](O)[C@H](O[C@@H]9O[C@H](C(=O)O)[C@@H](O)[C@H](O)[C@H]9O)[C@@](C)(CO)C8[C@H](O)C[C@@]7(C)[C@]5(C)CC6)OC[C@H](O)[C@@H]4O)O[C@H]3C)OC[C@H]2O)[C@H](O)[C@H](O)[C@H]1O (stereo partly drawn)
activity change, negative = cytotoxicity: -3.84% [at 6.55 µM] (inactive)
--
Compound: Cc1cc(Nc2ncc(Cl)c(Nc3ccccc3S(=O)(=O)C(C)C)n2)c(OC(C)C)cc1C1CCNCC1
activity change, negative = cytotoxicity: inactive
--
Compound: C[C@H]1[C@H](C)CC[C@]2(C(=O)O[C@@H]3O[C@H](CO)[C@@H](O)[C@H](O)[C@H]3O)CC[C@]3(C(=O)O)C(=CCC4[C@@]5(C)CC[C@H](O[C@@H]6O[C@H](CO)[C@@H](O)[C@H](O)[C@H]6O)C(C)(C)C5CC[C@]43C)[C@H]12 (stereo partly drawn)
activity change, negative = cytotoxicity: 2.9% [at 11.6 µM] (inactive)
--
Compound: CCC(C)C(=O)O[C@@H]1[C@@H](O)[C@@H](O[C@H]2O[C@H](CO)[C@@H](O)[C@H](O)[C@H]2O)O[C@H](CO)[C@H]1O (stereo partly drawn)
activity change, negative = cytotoxicity: inactive

input: Which value of activity change, negative = cytotoxicity has been reported for `C=C1CC[C@@H]2[C@](C)(CC[C@H](O)[C@@]2(C)CCC=C(C)C)[C@@H]1Cc1c[nH]c2ccccc12` in the records?
output: inactive

input: And the next one, CC(=O)C1CCC2(C)C3=C(CCC12C)C1(C)CCC(=O)C(C)(C)C1CC3 (stereo not drawn) ?
output: inactive

input: And the next one, `CC(C)CNC(=O)/C=C/CCCCc1ccc2c(c1)OCO2` ?
output: inactive
